Values compiled from patent US10160762B2.

Molecular target: human PDE2A1 (Homo sapiens)
Construct: GST; purchased BPS Bioscience (San Diego, Calif.) 60020; host or cells: insect cells
Test: IMAP FP PDE assay, human PDE2A1
Format: biochemical
Settings: Lab B; read-out: Human PDE2 Ki (nM) Lab B
Just a reminder that ties go to class 0: only Ki strictly below 70 nM counts as class 1.

Enquiry: For this compound, is Ki lower than 70 nM? Cc1nc2c(c(CO)nn2C(C)c2ccc(S(F)(F)(F)(F)F)cc2)c(=O)[nH]1 (single isomer, unassigned)
Return: class 1

Enquiry: Field entry: CC(c1ccc(C(F)(F)F)cc1)n1nc(-c2nnco2)c2c(=O)[nH]c(CC3CCCC3)nc21 (single isomer, unassigned) [Example 343]
Return: class 0

Enquiry: Field entry: CC(c1ccc(C(F)(F)F)cc1)n1nc(C#N)c2c(=O)[nH]c(CC3CCCC3)nc21 (single isomer, unassigned) [Example 350]
Return: class 1

Enquiry: Field entry: Cc1nc2c(c(CO)nn2C(C)c2ccc(Cl)s2)c(=O)[nH]1 (single isomer, unassigned) [Example 153]
Return: class 0

Enquiry: Field entry: Cc1nc2c(c(CO)nn2C(c2ccc(OC(F)(F)F)cc2)C(C)C)c(=O)[nH]1 (single isomer, unassigned) [Example 84]
Return: class 1

Enquiry: Field entry: CC(c1ccc(C(F)(F)F)cc1)n1nc(C(F)F)c2c(=O)[nH]c(C3CC3)nc21 (single isomer, unassigned) [Example 191]
Return: class 0

Enquiry: Field entry: Cc1nc2c(c(CF)nn2C(C)c2ccc(OC(F)(F)F)cc2)c(=O)[nH]1 (single isomer, unassigned) [Example 206]
Return: class 0

Enquiry: Field entry: Cc1nc2c(c(CO)nn2C(C)c2ccc(C(F)(F)F)cn2)c(=O)[nH]1 (single isomer, unassigned) [Example 151]
Return: class 1

Enquiry: Field entry: Cc1nc2c(c(C(F)(F)F)nn2C(C)c2ccc(C(F)(F)F)cc2)c(=O)[nH]1 (single isomer, unassigned) [Example 68]
Return: class 1

Enquiry: Field entry: Cc1nc2c(c(CF)nn2C(c2ccc(OC(F)(F)F)c(F)c2)C2CC2)c(=O)[nH]1 (single isomer, unassigned) [Example 229]
Return: class 1

Enquiry: Field entry: CCC(c1ccc(OC(F)(F)F)cc1)n1nc(CO)c2c(=O)[nH]c(C)nc21 (single isomer, unassigned) [Example 135]
Return: class 1

Enquiry: Field entry: Cc1nc2c(c(CO)nn2C(C)c2ccc(CC(F)(F)F)cc2)c(=O)[nH]1 (single isomer, unassigned) [Example 123]
Return: class 1

Enquiry: Field entry: Cc1nc2c(c(CO)nn2C(C)c2ccc(C3(C(F)(F)F)CC3)cc2)c(=O)[nH]1 (single isomer, unassigned) [Example 80]
Return: class 0

Enquiry: Field entry: Cc1nc2c(c(CC#N)nn2C(C)c2ccc(C(F)(F)F)cc2)c(=O)[nH]1 (single isomer, unassigned) [Example 280]
Return: class 0

Enquiry: Field entry: Cc1nc2c(c(C(F)F)nn2C(C)c2ccc(C(F)(F)F)cc2Cl)c(=O)[nH]1 (single isomer, unassigned) [Example 184]
Return: class 1

Enquiry: Field entry: Cc1nc2c(c(CO)nn2C(CC(F)(F)F)c2ccc(C(F)(F)F)cc2)c(=O)[nH]1 (single isomer, unassigned) [Example 96]
Return: class 1

Enquiry: Field entry: Cc1nc2c(c(CO)nn2C(C)c2ccc(C(F)(F)F)cc2F)c(=O)[nH]1 (single isomer, unassigned) [Example 17]
Return: class 1

Enquiry: Field entry: Cc1nc2c(c(C=O)nn2C(C)c2ccc(C(F)(F)F)cc2)c(=O)[nH]1 (stereo not shown)
Return: class 1

Enquiry: Field entry: Cc1nc2c(c(C(F)F)nn2C(C)c2ccc(OC(F)(F)F)cc2)c(=O)[nH]1 (single isomer, unassigned) [Example 177]
Return: class 1

###

Molecular target: Rhesus PDE2A3 (Macaca mulatta, UniProt B3VTJ2)
Construct: made in house; host or cells: AD293 cells, transient transfection; supernatant of sonicated lysate
Sequence (B3VTJ2 1-941): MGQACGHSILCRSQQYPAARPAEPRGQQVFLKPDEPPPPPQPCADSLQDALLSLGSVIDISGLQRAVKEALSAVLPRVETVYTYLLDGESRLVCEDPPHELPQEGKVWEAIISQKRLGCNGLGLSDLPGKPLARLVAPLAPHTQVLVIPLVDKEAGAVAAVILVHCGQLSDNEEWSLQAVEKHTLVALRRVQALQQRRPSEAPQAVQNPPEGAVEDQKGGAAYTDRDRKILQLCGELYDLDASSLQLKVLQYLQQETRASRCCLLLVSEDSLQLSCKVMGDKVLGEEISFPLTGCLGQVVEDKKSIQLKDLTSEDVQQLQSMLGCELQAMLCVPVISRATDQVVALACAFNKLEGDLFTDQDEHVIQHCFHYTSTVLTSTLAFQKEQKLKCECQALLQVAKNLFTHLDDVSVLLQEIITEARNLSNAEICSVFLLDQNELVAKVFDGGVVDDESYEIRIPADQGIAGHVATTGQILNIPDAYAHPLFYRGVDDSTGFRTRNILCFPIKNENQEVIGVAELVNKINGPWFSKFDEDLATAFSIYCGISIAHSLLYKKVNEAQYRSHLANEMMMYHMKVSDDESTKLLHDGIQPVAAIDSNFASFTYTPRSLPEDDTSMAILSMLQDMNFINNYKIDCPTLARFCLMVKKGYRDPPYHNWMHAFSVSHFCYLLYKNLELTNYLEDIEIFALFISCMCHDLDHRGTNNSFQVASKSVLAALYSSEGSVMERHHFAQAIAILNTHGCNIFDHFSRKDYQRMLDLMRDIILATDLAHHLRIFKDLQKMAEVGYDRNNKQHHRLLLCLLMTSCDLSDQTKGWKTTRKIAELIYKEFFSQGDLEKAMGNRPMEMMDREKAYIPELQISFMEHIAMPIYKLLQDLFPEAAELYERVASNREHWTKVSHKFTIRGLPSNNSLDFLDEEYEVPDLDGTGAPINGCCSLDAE
Assay: PDE2 fluorescence polarization (IMAP FP) inhibition assay, rhesus PDE2A3
Format: biochemical, rhesus macaque
Conditions: Lab B; read-out: Rhesus PDE2 Ki (nM) Lab B
Provide the reported Ki of each item.
Answers are plain numbers, in nM.

{"Compound": "Cc1nc2c(c(CO)nn2C(c2ccc(C(F)(F)F)cc2)C(C)(C)C)c(=O)[nH]1 (single isomer, unassigned) [Example 83]", "Ki (nM)": 9.4}
{"Compound": "Cc1nc2c(c(CO)nn2C(c2ccc(C(F)(F)F)c(F)c2)C(C)(C)C)c(=O)[nH]1 (single isomer, unassigned) [Example 128]", "Ki (nM)": 413}
{"Compound": "Cc1nc2c(c(CO)nn2C(C)c2ccc(C(F)(F)F)c(F)c2)c(=O)[nH]1 (single isomer, unassigned) [Example 12]", "Ki (nM)": 514}
{"Compound": "Cc1nc2c(c(CC(F)F)nn2C(C)c2ccc(C(F)(F)F)cc2)c(=O)[nH]1 (single isomer, unassigned) [Example 285]", "Ki (nM)": 179}

Quick batch: Ki for everything below.
1. Cc1nc2c(c(CO)nn2C(C)c2ccc(S(F)(F)(F)(F)F)cc2)c(=O)[nH]1 (single isomer, unassigned) [Example 76]
2. Cc1nc2c(c(CO)nn2C(C)c2ccc(C(F)(F)F)cc2)c(=O)[nH]1 (single isomer, unassigned) [Example 27]
3. Cc1nc2c(c(CC#N)nn2C(C)c2ccc(C(F)(F)F)cc2)c(=O)[nH]1 (single isomer, unassigned) [Example 280]

Return:
330
2.1
71

Quick batch: Ki for everything below.
1. Cc1nc2c(c(C(F)F)nn2C(C)c2ccc(OC(F)F)cc2)c(=O)[nH]1 (single isomer, unassigned)
2. Cc1nc2c(c(CO)nn2C(C)c2ccc(C(F)(F)F)c(F)c2)c(=O)[nH]1 (centres unmarked) [Example 1]

Return:
1.2
7.2

Quick batch: Ki for everything below.
1. COCc1nc2c(c(CO)nn2C(C)c2ccc(C(F)(F)F)cc2)c(=O)[nH]1 (single isomer, unassigned) [Example 292]
2. CC(c1ccc(C(F)(F)F)cc1)n1nc(CO)c2c(=O)[nH]c(C(F)F)nc21 (centres unmarked)
3. COc1ccc(Cc2nc3c(c(C(F)F)nn3C(C)c3ccc(C(F)(F)F)cc3)c(=O)[nH]2)cc1OC (single isomer, unassigned) [Example 196]

Return:
1: 473; 2: 69; 3: 28

Quick batch: Ki for everything below.
1. Cc1nc2c(c(CF)nn2C(C)c2ccc(OC(F)(F)F)cc2)c(=O)[nH]1 (single isomer, unassigned) [Example 207]
2. Cc1nc2c(c(C)nn2C(C)C(O)c2ccc(C(F)(F)F)cc2)c(=O)[nH]1 (centres unmarked)

Return:
[0.84, 8880]

###

Biological target: human PDE2A1 (Homo sapiens)
Construct: GST; purchased BPS Bioscience (San Diego, Calif.) 60020; host or cells: insect cells
Experiment: IMAP FP PDE assay, human PDE2A1
Type: biochemical
Details: Lab A; read-out: Human PDE2 Ki (nM) Lab A
Just a reminder that ties go to FALSE: only Ki strictly below 20 nM counts as TRUE.

Consider the following illustrative entries.
{"Molecule": "COCc1nc2c(c(C)nn2C(C)c2ccc(C(F)(F)F)cc2)c(=O)[nH]1 (centres unmarked) [Example 48]", "Class Assignment": "FALSE"}
{"Molecule": "COc1ccc(Cc2nc3c(c(CO)nn3C(C)c3ccc(C(F)(F)F)cc3)c(=O)[nH]2)cc1OC (racemic) [Example 297]", "Class Assignment": "TRUE"}
{"Molecule": "COc1ccc(Cc2nc3c(c(C)nn3C(C)c3ccc(C(F)(F)F)cc3)c(=O)[nH]2)cc1OC (centres unmarked) [Example 44]", "Class Assignment": "TRUE"}
{"Molecule": "Cc1nn(C(C)c2ccc(C(F)(F)F)cc2)c2nc(C(C)C)[nH]c(=O)c12 (centres unmarked) [Example 43]", "Class Assignment": "FALSE"}

Enquiry: For this molecule, is Ki lower than 20 nM? Cc1nn(C(C)c2ccc(C(F)(F)F)cc2)c2nc(Cc3ccccc3O)[nH]c(=O)c12 (centres unmarked) [Example 31]
Return: FALSE

###

Target: human PDE2A1 (Homo sapiens, UniProt O00408)
Construct: GST; purchased BPS Bioscience (San Diego, Calif.) 60020; host or cells: insect cells
Sequence (O00408 1-920 isoform O00408-2): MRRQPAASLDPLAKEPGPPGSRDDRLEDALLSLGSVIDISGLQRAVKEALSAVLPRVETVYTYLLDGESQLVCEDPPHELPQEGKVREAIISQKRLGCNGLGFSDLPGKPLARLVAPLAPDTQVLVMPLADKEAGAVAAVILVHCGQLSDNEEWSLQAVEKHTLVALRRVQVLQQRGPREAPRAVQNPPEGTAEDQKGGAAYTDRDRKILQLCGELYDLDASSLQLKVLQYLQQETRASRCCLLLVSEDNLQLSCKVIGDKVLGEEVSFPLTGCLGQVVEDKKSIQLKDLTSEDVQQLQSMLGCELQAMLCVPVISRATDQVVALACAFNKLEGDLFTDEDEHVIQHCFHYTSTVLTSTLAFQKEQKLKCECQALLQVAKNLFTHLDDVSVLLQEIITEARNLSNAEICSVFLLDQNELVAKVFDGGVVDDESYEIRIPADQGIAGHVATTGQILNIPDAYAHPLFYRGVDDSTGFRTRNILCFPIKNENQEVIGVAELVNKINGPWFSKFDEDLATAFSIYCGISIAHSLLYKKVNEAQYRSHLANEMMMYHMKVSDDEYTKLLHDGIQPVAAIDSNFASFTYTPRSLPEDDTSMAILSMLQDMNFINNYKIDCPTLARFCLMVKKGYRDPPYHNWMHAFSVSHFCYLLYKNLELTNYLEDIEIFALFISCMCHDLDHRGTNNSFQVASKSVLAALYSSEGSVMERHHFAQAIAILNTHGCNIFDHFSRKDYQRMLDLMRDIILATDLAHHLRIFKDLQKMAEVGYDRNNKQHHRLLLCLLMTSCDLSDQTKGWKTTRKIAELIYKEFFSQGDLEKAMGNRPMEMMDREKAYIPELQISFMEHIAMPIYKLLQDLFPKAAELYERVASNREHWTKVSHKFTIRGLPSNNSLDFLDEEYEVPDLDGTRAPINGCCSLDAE
Assay: IMAP FP PDE assay, human PDE2A1
Assay type: biochemical
Conditions: Lab B; read-out: Human PDE2 Ki (nM) Lab B
Attribute Measured: log10(Ki) (log10 of the value in nM)
Log scale reminder: Ki in nM, then log10 taken.

A selection of reference data follows.
{"Molecule": "COCC(c1ccc(C(F)(F)F)cc1)n1nc(CO)c2c(=O)[nH]c(C)nc21 (single isomer, unassigned) [Example 101]", "log10(Ki)": 1.11}
{"Molecule": "Cc1nc2c(c(CO)nn2C(c2ccc(C(F)(F)F)c(F)c2)C(C)(C)C)c(=O)[nH]1 (single isomer, unassigned)", "log10(Ki)": 0.95}
{"Molecule": "COCc1nn(C(C)c2ccc(C(F)(F)F)cc2)c2nc(C)[nH]c(=O)c12 (single isomer, unassigned)", "log10(Ki)": 1.23}
{"Molecule": "CCCc1nc2c(c(CO)nn2C(C)c2ccc(C(F)(F)F)cc2)c(=O)[nH]1 (single isomer, unassigned) [Example 303]", "log10(Ki)": 0.67}
{"Molecule": "Cc1nc2c(c(O)nn2[C@@H](C)c2ccc(C(F)(F)F)cc2)c(=O)[nH]1", "log10(Ki)": 3.32}

Now for another entry.
Enquiry: Quick one: log10(Ki) for Cc1nc2c(c([C@H](C)CO)nn2[C@@H](C)c2ccc(C(F)(F)F)cc2)c(=O)[nH]1 (single isomer, unassigned) ?
Return: 1.52
